src = patent US9505724B2

SYSTEM: human PDE4B1 (Homo sapiens)
Construct: host or cells: Sf9 cells
Sequence (Q07343 whole entry): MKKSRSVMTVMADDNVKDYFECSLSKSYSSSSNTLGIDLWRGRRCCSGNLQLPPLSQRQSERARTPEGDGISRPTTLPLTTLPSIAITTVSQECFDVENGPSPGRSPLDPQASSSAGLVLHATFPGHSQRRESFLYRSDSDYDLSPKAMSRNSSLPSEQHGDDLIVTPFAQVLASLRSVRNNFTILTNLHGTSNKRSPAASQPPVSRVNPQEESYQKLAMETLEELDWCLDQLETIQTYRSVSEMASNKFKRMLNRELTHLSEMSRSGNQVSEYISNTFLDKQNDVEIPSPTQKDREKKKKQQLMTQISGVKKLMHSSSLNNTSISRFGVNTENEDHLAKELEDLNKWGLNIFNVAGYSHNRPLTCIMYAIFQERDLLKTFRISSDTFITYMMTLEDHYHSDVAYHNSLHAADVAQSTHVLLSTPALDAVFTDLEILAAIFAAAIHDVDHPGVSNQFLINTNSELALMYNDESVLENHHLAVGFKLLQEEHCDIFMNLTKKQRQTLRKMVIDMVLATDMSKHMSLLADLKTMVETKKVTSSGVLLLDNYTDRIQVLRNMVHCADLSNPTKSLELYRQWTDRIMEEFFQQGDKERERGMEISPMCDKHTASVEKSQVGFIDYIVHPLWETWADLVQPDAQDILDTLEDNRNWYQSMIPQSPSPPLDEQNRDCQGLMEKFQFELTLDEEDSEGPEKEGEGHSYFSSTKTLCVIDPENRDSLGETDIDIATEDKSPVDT
PROCEDURE SUMMARY: cAMP HTRF assay to determine the activity of hPDE4B1
Assay type: biochemical
SETUP CONDITIONS: comparative experiments, re-synthesised prior-art compounds (Table 6); read-out: PDE4B IC50
Readings of IC50 for the listed compounds
MEASUREMENT KIND: IC50 (nM)

COMPOUND	VALUE MEASURED
C=CCc1c(C)nc(-c2ccccc2)nc1Nc1ccc(C(=O)O)cc1 [Compound S2, reference compound]	1100
C=CCc1c(C)nc(-c2ccc(OC)cc2)nc1Nc1ccc(CC(=O)O)cc1 [Compound S1, reference compound]	3600
